Reported values of T50% (decomposition temperature of 50% sample) for individual entries
experimental_protocol: Thermal gravimetric analysis of the ILs and DSILs
Type: physicochemical
condition_summary: TGA under nitrogen, 10° C./min
Quick note: number first, unit second.

Below are worked cases with known answers.
# compound, observed_value
records = [
    ("CC(=O)[O-].C[N+](C)(C)CCO [[Ch][Ace], cholinium acetate]", "211.4 °C"),
    ("CCCCCCCC(=O)[O-].C[N+](C)(C)CCO [[Ch][Oct], cholinium octanoate]", "209.5 °C"),
]

The value of T50% (decomposition temperature of 50% sample) measured for the compound C[N+](C)(C)CCO.NCCCC[C@H](N)C(=O)[O-] [[Ch][Lys], cholinium lysinate] turned out to be 218.1 °C

The value of T50% (decomposition temperature of 50% sample) measured for the compound CCCCCCCCCCCCCCCC(=O)[O-].C[N+](C)(C)CCO [[Ch][Pal], cholinium palmitate] turned out to be 225.3 °C

Each recorded value in this set is attributed to patent US20220195666A1.
